experimentalProtocol: Cytotoxicity against mouse macrophage assessed as cell viability at 50 uM after 18 hrs by MTT assay
Assay type: cell-based
runParameters: mouse macrophages, read-out: Activity
# viability at 18 h, 50 µM per record follows
Enter your answer as a number in %; do not include the unit.

Would you please look over these solved cases?
COc1ccccc1C1O[C@@H](c2cc(C(F)(F)F)nc3c(C(F)(F)F)cccc23)[C@H]2CCCCN12 (mixture of isomers)
100
FC(F)(F)c1cc([C@@H]2OC(c3cccc(Cl)c3)N3CCCC[C@H]23)c2cccc(C(F)(F)F)c2n1 (mixture of isomers)
90

Note: attention shifts to another entry.
Fill blank: measured viability at 18 h, 50 µM of the compound Fc1ccc(C2O[C@@H](c3cc(C(F)(F)F)nc4c(C(F)(F)F)cccc34)[C@H]3CCCCN23)cc1 (mixture of isomers) is ____.
82

###

experimentalProtocol: Cytotoxicity against mouse macrophage assessed as cell viability at 12.5 uM after 18 hrs by MTT assay
Type: cell-based
runParameters: mouse macrophages, read-out: Activity
measureName: viability at 18 h, 12.5 µM (%)
Enter your answer as a number in %; do not include the unit.

FC(F)(F)c1cc([C@@H]2OC(c3cccc(Br)c3)N3CCCC[C@H]23)c2cccc(C(F)(F)F)c2n1 (mixture of isomers)
100
O=[N+]([O-])c1cccc(C2O[C@@H](c3cc(C(F)(F)F)nc4c(C(F)(F)F)cccc34)[C@H]3CCCCN23)c1 (stereo partly drawn)
100
Oc1ccc(C2O[C@@H](c3cc(C(F)(F)F)nc4c(C(F)(F)F)cccc34)[C@H]3CCCCN23)cc1 (mixture of isomers)
100
FC(F)(F)c1cc([C@@H]2OC(c3ccc(Cl)cc3)N3CCCC[C@H]23)c2cccc(C(F)(F)F)c2n1 (mixture of isomers)
100
OC(c1cc(C(F)(F)F)nc2c(C(F)(F)F)cccc12)C1CCCCN1 (stereo not drawn)
81

Fill blank: measured viability at 18 h, 12.5 µM of the compound O=[N+]([O-])c1ccccc1C1O[C@@H](c2cc(C(F)(F)F)nc3c(C(F)(F)F)cccc23)[C@H]2CCCCN12 (mixture of isomers) is ____.
100

And COc1cccc(C2O[C@@H](c3cc(C(F)(F)F)nc4c(C(F)(F)F)cccc34)[C@H]3CCCCN23)c1 (mixture of isomers) ?
100

And Fc1ccc(C2O[C@@H](c3cc(C(F)(F)F)nc4c(C(F)(F)F)cccc34)[C@H]3CCCCN23)cc1 (mixture of isomers) ?
93

// data source = ChEMBL document CHEMBL1629482
